System: KRAS PDC multicell spheroid viability
test: Anticancer human tumor 521955-158-R6-J3-PDC patient-derived pancreatic carcinoma cell line growth inhibition [KRAS2]
conditions: second compound 10 µM; first compound 1 µM; hits give low values
reported.metric: viability, T/C (%)

{"compound": "CC1COCCN1c1cc(-c2ccnn2C)c2ccnc(-c3ccn[nH]3)c2n1 (stereo not drawn) + CNCc1ccccc1-c1csc(C(C)Nc2nc(C)nc3cc(OC)c(OC)cc23)c1", "assay.result": 0.17}
{"compound": "CCNC(=O)CC1N=C(c2ccc(Cl)cc2)c2cc(OC)ccc2-n2c(C)nnc21 (stereo not drawn) + CC1OCC2(CCN(c3cnc(Sc4ccnc(N)c4Cl)c(N)n3)CC2)C1N", "assay.result": 50}
{"compound": "CC(=O)OC12COC1CC(O)C1(C)C(=O)C(O)C3=C(C)C(OC(=O)C(O)C(NC(=O)OC(C)(C)C)c4ccccc4)CC(O)(C(OC(=O)c4ccccc4)C21)C3(C)C (stereo not drawn) + C=CC(=O)N1CCN(c2nc(=O)n(-c3c(C)ccnc3C(C)C)c3nc(-c4c(O)cccc4F)c(F)cc23)C(C)C1", "assay.result": 86.8}

* * *

Test system: KRAS PDC multicell spheroid viability
test: Anticancer human tumor 521955-158-R6-J3-PDC cell line growth inhibition [KRAS2]; active = viability on the fitted dose curve at most 10% of control; inactive = the rest;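 note: drug exposure lasted seven days; 100% = DMSO vehicle wells and lower means fewer viable cells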
conditions: second compound 3.16 µM; first compound 0.316 µM
Classes used: 1 (yes) = active, 0 (no) = inactive

{"compound": "COc1cc2nccc(Oc3ccc(NC(=O)C4(C(=O)Nc5ccc(F)cc5)CC4)cc3)c2cc1OC + CNCc1ccccc1-c1csc(C(C)Nc2nc(C)nc3cc(OC)c(OC)cc23)c1", "class.name": "1 (yes)"}
{"compound": "CC1OCC2(CCN(c3cnc(Sc4ccnc(N)c4Cl)c(N)n3)CC2)C1N (stereo not drawn) + C=CC(=O)N1CCN(c2nc(OCC3CCCN3C)nc3c2CCN(c2cccc4cccc(C)c24)C3)CC1CC#N", "class.name": "0 (no)"}
{"compound": "CC(C)NCC(C(=O)N1CCN(c2ncnc3c2C(C)CC3O)CC1)c1ccc(Cl)cc1 (stereo not drawn) + CC1OCC2(CCN(c3cnc(Sc4ccnc(N)c4Cl)c(N)n3)CC2)C1N", "class.name": "0 (no)"}

* * *

Tested on: KRAS PDC multicell spheroid viability
test: Anticancer human tumor 521955-158-R6-J3-PDC cell line growth inhibition [KRAS2];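 note: drug exposure lasted seven days; 100% = DMSO vehicle wells and lower means fewer viable cells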
conditions: second compound 0.316 µM; first compound 0.1 µM; hits give low values
# if measured viability, T/C < 70%: YES  # else: NO

{"molecule": "CCNC(=O)CC1N=C(c2ccc(Cl)cc2)c2cc(OC)ccc2-n2c(C)nnc21 (stereo not given) + COc1cc2nc(C)nc(NC(C)c3cc(N)cc(C(F)(F)F)c3)c2cc1OC1CCOC1", "target.or.test.system": "KRAS PDC multicell spheroid viability", "class.name": "NO"}
{"molecule": "CN(C)C/C=C/C(=O)Nc1cc2c(Nc3ccc(F)c(Cl)c3)ncnc2cc1O[C@H]1CCOC1 + C=CC(=O)N1CCN(c2nc(OCC3CCCN3C)nc3c2CCN(c2cccc4cccc(C)c24)C3)CC1CC#N", "target.or.test.system": "KRAS PDC multicell spheroid viability", "class.name": "YES"}
{"molecule": "CCN1CCN(Cc2ccc(Nc3ncc(F)c(-c4cc(F)c5nc(C)n(C(C)C)c5c4)n3)nc2)CC1 + C=CC(=O)N1CCN(c2nc(OCC3CCCN3C)nc3c2CCN(c2cccc4cccc(C)c24)C3)CC1CC#N", "target.or.test.system": "KRAS PDC multicell spheroid viability", "class.name": "NO"}
{"molecule": "CC(C)NCC(C(=O)N1CCN(c2ncnc3c2C(C)CC3O)CC1)c1ccc(Cl)cc1 (stereo not given) + COc1cc2nc(C)nc(NC(C)c3cc(N)cc(C(F)(F)F)c3)c2cc1OC1CCOC1", "target.or.test.system": "KRAS PDC multicell spheroid viability", "class.name": "NO"}
